Origin of measurements: ChEMBL document CHEMBL1201862

- System: SK-MEL-5
- experiment.description: NCI tumour cell line growth inhibition, 48 h
Activity calls are given as the source filed them. No stated cut-off is given here; in the data, active = GI50 up to about 1.1 µM and inactive = higher.
Classes used: active, inactive

# molecule, target.desc, label.value
data = [
    ("O=[N+]([O-])c1cc(F)ccc1S(=O)(=O)c1ccccc1", "SK-MEL-5", "inactive"),
    ("CCCNC(=O)C1C(=O)C(=O)N(CCC)C1=O (stereo not given)", "SK-MEL-5", "inactive"),
    ("OCc1cc2c([nH]c3ccccc32)c(C(O)CO)n1 (stereo not given)", "SK-MEL-5", "inactive"),
    ("CC(=O)O[C@H]1CC[C@H]2[C@@H]3CCC4=C/C(=N/OCCN(C)C)CC[C@]4(C)[C@H]3CC[C@]12C", "SK-MEL-5", "inactive"),
    ("CC(C)(C)c1ccc(C(C)(C)C)c(N2C(=O)[C@@H]3[C@@H]4C=C[C@@H](C4)[C@]3(C)C2=O)c1", "SK-MEL-5", "inactive"),
    ("N#Cc1c(-c2ccc(Cl)cc2)cc(-c2nc3ccccc3[nH]2)nc1N", "SK-MEL-5", "inactive"),
    ("COC(=O)C(Cc1c[nH]c2ccccc12)NP(=O)(O)OCC1OC(n2cc(F)c(=O)[nH]c2=O)CC1O (stereo not given)", "SK-MEL-5", "inactive"),
    ("COc1ccc(CC(C#N)c2cc(OC)c(OC)c(OC)c2)cc1 (stereo not given)", "SK-MEL-5", "active"),
    ("N#Cc1c(N)sc2c1-c1ccccc1OC2", "SK-MEL-5", "inactive"),
    ("O=C(NN=C1CCN(Cc2ccccc2)CC1)C(O)(c1ccccc1)c1ccccc1", "SK-MEL-5", "inactive"),
]

* * *

- System: NCI/ADR-RES
- experiment.description: NCI tumour cell line growth inhibition, 48 h
Activity calls are given as the source filed them. Rule as the data show it: active = GI50 up to about 1.1 µM and inactive = higher.
Classes used: active, inactive

# molecule, label.value
records = [
    ("COc1ccc(CC(C#N)c2cc(OC)c(OC)c(OC)c2)cc1 (stereo not drawn)", "active"),
    ("O=[N+]([O-])c1cc(F)ccc1S(=O)(=O)c1ccccc1", "inactive"),
    ("Cc1nc2[nH]ncn2c(=O)c1CCCl", "inactive"),
    ("O=C1c2ccccc2C2CNC1(O)c1ccccc12 (stereo not drawn)", "inactive"),
    ("Cc1nc2cc(/N=N/c3c(O)ccc4ccccc34)ccc2[nH]1", "inactive"),
    ("COc1ccc2ccccc2c1/C=C/C(=O)c1ccccc1", "inactive"),
    ("Nn1c(=S)[nH]nc(/C=C/c2c(O)ccc3ccccc23)c1=O", "inactive"),
    ("COc1ccc2cc(C(=O)NCCCNC(=O)c3ccc4c(OC)c(OC)ccc4c3)ccc2c1OC", "inactive"),
]

* * *

- System: SF-295
- experiment.description: NCI tumour cell line growth inhibition, 48 h
Calls of active or inactive are those of the source. No stated cut-off is given here; in the data, active = GI50 up to about 1.1 µM and inactive = higher.
experimental.readout: GI50

# compound, value.observed
data = [
    ("Cc1ccc(S(=O)(=O)N2CCCN(S(=O)(=O)c3ccc(C)cc3)CC2)cc1", "> 100 µM (inactive)"),
    ("Cc1cc(Cl)ccc1NC1=NC(=O)C(CC(=O)Nc2ccc([N+](=O)[O-])cc2[N+](=O)[O-])S1 (stereo not drawn)", "22.9 µM (inactive)"),
    ("Cn1c(CO)ccc1-c1ccc(-c2ccc(CO)[se]2)[se]1", "> 76.4 µM (inactive)"),
]

* * *

- Tested on: SK-OV-3
- experiment.description: NCI tumour cell line growth inhibition, 48 h
Active and inactive are the calls of the source. No stated cut-off is given here; in the data, active = GI50 up to about 1.1 µM and inactive = higher.
experimental.readout: GI50

# compound, experimental.readout, value.observed
data = [
    ("CC1CC[C@@]2(OC1)OC1C[C@H]3[C@@H]4CC[C@H]5CC(OC6OC(CO)C(OC7OC(CO)C(O)C(O)C7O)C(O)C6O)CCC5(C)[C@H]4CCC3(C)C1[C@@H]2C (some centres not stated)", "GI50", "10.1 µM (inactive)"),
    ("CC(=O)C1C(=O)C(=O)N(c2ccc([N+](=O)[O-])cc2)C1=O (configuration not stated)", "GI50", "> 100 µM (inactive)"),
    ("O=C1C(Cl)=C(Cl)C(=O)N1c1cccc(C(F)(F)F)c1", "GI50", "> 100 µM (inactive)"),
    ("Cn1c2ccc(C3=NCCN3)cc2c2cc(C3=NCCN3)ccc21", "GI50", "44.1 µM (inactive)"),
    ("CC(C)N(C(=O)C12C3C4C1C1C2C3C41C(=O)N(C(C)C)C(C)C)C(C)C (configuration not stated)", "GI50", "> 50 µM (inactive)"),
    ("CC1=NC(=N)N=C(C)C1/N=N/c1ccc2[nH]c(C)nc2c1 (configuration not stated)", "GI50", "> 100 µM (inactive)"),
    ("COc1cc(C)cc(C(=O)OCc2ccccc2)c1C1=C(Cl)C(=O)C(Cl)=CC1=O", "GI50", "> 10 µM (inactive)"),
]

* * *

Below is a list of entries, each paired with its recorded GI50 value.
- System: EKVX
- experiment.description: NCI tumour cell line growth inhibition, 48 h
The source made the active and inactive calls. Rule as the data show it: active = GI50 up to about 1.1 µM and inactive = higher.

# compound, GI50
records = [
    ("C/C(=N/NC(=S)N1CCCC1)c1cccc(/C(C)=N\\NC(=S)N2CCCC2)n1", "152 nM (active)"),
    ("C/C(=N\\NC(=S)N1CCN(C2CCCCCC2)CC1)c1ccccn1", "< 12.1 nM (active)"),
    ("CC(=O)OC(C)(C)/C=C/C(=O)[C@](C)(O)[C@H]1[C@H](O)C[C@@]2(C)[C@@H]3CC=C4[C@@H](C=C(O)C(=O)C4(C)C)[C@]3(C)C(=O)C[C@]12C [CUCURBITACIN E]", "118 nM (active)"),
    ("O=P(O)(NCCCl)NCCCl [PALIFOSFAMIDE]", "> 10000 nM (inactive)"),
]

* * *

Below is a list of entries, each paired with its recorded GI50 value.
- System: LXFL 529
- experiment.description: NCI tumour cell line growth inhibition, 48 h
Calls of active or inactive are those of the source. Cut-off read from the data, not from the text of the source: active = GI50 up to about 1.1 µM and inactive = higher.

# molecule, GI50
rows = [
    ("Cc1cc(Cl)ccc1NC1=NC(=O)C(CC(=O)Nc2ccc([N+](=O)[O-])cc2[N+](=O)[O-])S1 (configuration not stated)", "18.8 µM (inactive)"),
    ("C/C(=N\\NC(=S)N1CCN(C2CCCCCC2)CC1)c1ccccn1", "0.001 µM (active)"),
    ("CC(=O)C1CC2(c3ccccc3)C(=O)c3ccccc3N2O1 (configuration not stated)", "> 100 µM (inactive)"),
    ("CC(=O)CC(=O)NC=O", "> 100 µM (inactive)"),
    ("CCC1=C(CC)C1(C#N)[N+](=O)[O-]", "> 100 µM (inactive)"),
    ("COc1cc(/C=C2/C(=O)N(C(=O)c3ccc(Cl)cc3)N=C2C)cc(OC)c1OC", "> 100 µM (inactive)"),
    ("CC(C)c1cccc(C(C)C)c1NC(=O)CCC(=O)NN", "> 100 µM (inactive)"),
]

* * *

- Tested on: HCT-116
- experiment.description: NCI tumour cell line growth inhibition, 48 h
Active and inactive are the calls of the source. No stated cut-off is given here; in the data, active = GI50 up to about 1.1 µM and inactive = higher.
experimental.readout: GI50

# compound, target.desc, value.observed
data = [
    ("CCCCOC(=O)/C(CC(=O)C=C(C)C)=N\\NS(=O)(=O)c1ccc(C)cc1", "HCT-116", "> 100 µM (inactive)"),
    ("O=C(O)COc1ccc(C(=O)/C(SS/C(C(=O)c2ccc(OCC(=O)O)c(Cl)c2Cl)=C2\\C=C(c3ccccc3Cl)SS2)=C2/C=C(c3ccccc3Cl)SS2)c(Cl)c1Cl", "HCT-116", "18 µM (inactive)"),
    ("COc1cc([N+](=O)[O-])ccc1NC1=CC(=O)CCC1", "HCT-116", "> 100 µM (inactive)"),
    ("N#CC(C(=O)CCC(=O)Nc1cccc(C(F)(F)F)c1)c1ccc(Cl)cc1 (stereo not drawn)", "HCT-116", "> 100 µM (inactive)"),
    ("Nc1ccc(Nc2nc(F)nc(-c3c4ccccc4c4n3CCS4)n2)cc1", "HCT-116", "14.6 µM (inactive)"),
    ("O=c1c2ccccc2nc(-c2ccccc2)n1NC(=S)Nc1ccccc1", "HCT-116", "> 100 µM (inactive)"),
    ("C=CCOc1ccc(C(=N/NC(=O)c2ccccc2)/N=N/c2ccc(C)cc2)cc1OC", "HCT-116", "19 µM (inactive)"),
    ("CCCCCCCC1C(C)c2c([nH]c3ccccc23)C2C(=O)N(c3ccc(OC)cc3)C(=O)C21 (stereo not drawn)", "HCT-116", "1.79 µM (inactive)"),
    ("CCOP(=O)(O)CN1CCNCCN(CP(=O)(O)OCC)CCNCC1", "HCT-116", "> 100 µM (inactive)"),
    ("O=c1[nH]c(=S)[nH]n1C(=S)n1[nH]c(=S)[nH]c1=O", "HCT-116", "> 100 µM (inactive)"),
    ("OCc1cc2c([nH]c3ccccc32)c(C(O)CO)n1 (stereo not drawn)", "HCT-116", "> 100 µM (inactive)"),
    ("CC(=O)OCC1OC(n2cc(F)c(=O)[nH]c2=O)C(OC(C)=O)C1OC(C)=O (stereo not drawn)", "HCT-116", "4.25 µM (inactive)"),
    ("O=C(NC1C(=O)NC(CCc2ccccc2)NC1=O)OCc1ccccc1 (stereo not drawn)", "HCT-116", "> 100 µM (inactive)"),
]
